TEST DESCRIPTION: Cytotoxicity against human 1A9/A8 cells by MTT assay
Type: functional, cell-based
MEASURED PROPERTY: IC50 (nM)
Return type: number; implicit unit nM.

Here are 4 compounds together with their reported answers.
CCC(=O)O[C@H]1C(=O)[C@@]2(C)[C@H]([C@H](OC(=O)c3cccc(OC)c3)[C@]3(O)C[C@H](OC(=O)[C@H](O)[C@H](C=C(C)C)NC(=O)OC(C)(C)C)C(C)=C1C3(C)C)[C@]1(OC(C)=O)CO[C@@H]1C[C@@H]2O: 4
CC(=O)O[C@@]12CO[C@@H]1C[C@H](O)[C@@]1(C)C(=O)[C@H](OC(=O)C3CC3)C3=C(C)[C@@H](OC(=O)[C@H](O)[C@H](C=C(C)C)NC(=O)OC(C)(C)C)C[C@@](O)([C@@H](OC(=O)c4ccccc4)[C@H]21)C3(C)C: 12.2
CC(=O)O[C@@]12CO[C@@H]1C[C@H](O)[C@@]1(C)C(=O)[C@H](OC(=O)N(C)C)C3=C(C)[C@@H](OC(=O)[C@H](O)[C@H](C=C(F)F)NC(=O)OC(C)(C)C)C[C@@](O)([C@@H](OC(=O)c4ccccc4)[C@H]21)C3(C)C: 4
CC(=O)O[C@H]1C(=O)[C@@]2(C)[C@H]([C@H](OC(=O)c3ccccc3)[C@]3(O)C[C@H](OC(=O)[C@H](O)[C@@H](NC(=O)c4ccccc4)c4ccccc4)C(C)=C1C3(C)C)[C@]1(OC(C)=O)CO[C@@H]1C[C@@H]2O: 4.2

Then this compound:
Prompt: Identify IC50 associated with the compound CC(=O)O[C@H]1C(=O)[C@@]2(C)[C@H]([C@H](OC(=O)c3ccccc3)[C@]3(O)C[C@H](OC(=O)[C@H](O)[C@H](CC(C)C)NC(=O)OC(C)(C)C)C(C)=C1C3(C)C)[C@]1(OC(C)=O)CO[C@@H]1C[C@@H]2O
Response: 11.5

----------
TEST DESCRIPTION: Cytotoxicity against human 1A9/A8 cells by MTT assay
Assay type: functional, cell-based
MEASURED PROPERTY: IC50 (nM)
Return type: number; implicit unit nM.

CCC(=O)O[C@H]1C(=O)[C@@]2(C)[C@H]([C@H](OC(=O)c3cccc(N=[N+]=[N-])c3)[C@]3(O)C[C@H](OC(=O)[C@H](O)[C@@H](NC(=O)OC(C)(C)C)c4ccccc4)C(C)=C1C3(C)C)[C@]1(OC(C)=O)CO[C@@H]1C[C@@H]2O: 3.8

Then this molecule:
Prompt: Identify IC50 associated with the molecule C/C=C(\C)C(=O)N[C@@H](c1ccccc1)[C@@H](O)C(=O)O[C@H]1C[C@@]2(O)[C@@H](OC(=O)c3cccc(N=[N+]=[N-])c3)[C@@H]3[C@]4(OC(C)=O)CO[C@@H]4C[C@H](OC(=O)CC)[C@@]3(C)C(=O)[C@H](O)C(=C1C)C2(C)C
Response: 2

----------
System: microtubule (Bos taurus)
TEST DESCRIPTION: Binding affinity to microtubule (Bos taurus) after 30 mins at 30 degC by flutax-2 displacement method
The compounds listed here are annotated with their log10(Kb).
Units before log transform: ×10⁷ /M; reported quantity: Kb; transform: log10.

CC(=O)O[C@H]1C(=O)[C@@]2(C)[C@H]([C@H](OC(=O)c3ccccc3)[C@]3(O)C[C@H](OC(=O)[C@H](O)[C@H](CC(C)C)NC(=O)OC(C)(C)C)C(C)=C1C3(C)C)[C@]1(OC(C)=O)CO[C@@H]1C[C@@H]2O: 0.43

Prompt: Please tell me the measured log10(Kb) for C/C=C(\C)C(=O)N[C@@H](c1ccccc1)[C@@H](O)C(=O)O[C@H]1C[C@@]2(O)[C@@H](OC(=O)c3cccc(N=[N+]=[N-])c3)[C@@H]3[C@]4(OC(C)=O)CO[C@@H]4C[C@H](OC(=O)CC)[C@@]3(C)C(=O)[C@H](O)C(=C1C)C2(C)C ; system: microtubule (Bos taurus).
Response: 1.93

Prompt: Please tell me the measured log10(Kb) for CCC(=O)O[C@H]1C(=O)[C@@]2(C)[C@H]([C@H](OC(=O)c3cccc(N=[N+]=[N-])c3)[C@]3(O)C[C@H](OC(=O)[C@H](O)[C@@H](NC(=O)OC(C)(C)C)c4ccccc4)C(C)=C1C3(C)C)[C@]1(OC(C)=O)CO[C@@H]1C[C@@H]2O ; system: microtubule (Bos taurus).
Response: 2.87

Prompt: Please tell me the measured log10(Kb) for CC(=O)O[C@@]12CO[C@@H]1C[C@H](O)[C@@]1(C)C(=O)[C@H](OC(=O)C3CC3)C3=C(C)[C@@H](OC(=O)[C@H](O)[C@H](C=C(C)C)NC(=O)OC(C)(C)C)C[C@@](O)([C@@H](OC(=O)c4ccccc4)[C@H]21)C3(C)C ; system: microtubule (Bos taurus).
Response: 1.00

Prompt: Please tell me the measured log10(Kb) for CC(=O)O[C@@]12CO[C@@H]1C[C@H](O)[C@@]1(C)C(=O)[C@H](OC(=O)N(C)C)C3=C(C)[C@@H](OC(=O)[C@H](O)[C@H](C=C(F)F)NC(=O)OC(C)(C)C)C[C@@](O)([C@@H](OC(=O)c4ccccc4)[C@H]21)C3(C)C ; system: microtubule (Bos taurus).
Response: 1.11

----------
System: A549
TEST DESCRIPTION: Effect on microtubule cytoskeleton in human A549 cells assessed as induction of micronuleated cells with short microtubules in cytoplasm at 60 to 120 nM after 24 hrs by immunofluorescence assay
Assay type: cell-based
Calls of active or inactive are those of the source. No cut-off for these calls is given here.
MEASURED PROPERTY: Activity

Here are 5 compounds together with their reported answers.
CCC(=O)O[C@H]1C(=O)[C@@]2(C)[C@H]([C@H](OC(=O)c3cccc(N=[N+]=[N-])c3)[C@]3(O)C[C@H](OC(=O)[C@H](O)[C@@H](NC(=O)OC(C)(C)C)c4ccccc4)C(C)=C1C3(C)C)[C@]1(OC(C)=O)CO[C@@H]1C[C@@H]2O: Active
C/C=C(\C)C(=O)N[C@@H](c1ccccc1)[C@@H](O)C(=O)O[C@H]1C[C@@]2(O)[C@@H](OC(=O)c3cccc(N=[N+]=[N-])c3)[C@@H]3[C@]4(OC(C)=O)CO[C@@H]4C[C@H](OC(=O)CC)[C@@]3(C)C(=O)[C@H](O)C(=C1C)C2(C)C: Active
CC(=O)O[C@H]1C(=O)[C@@]2(C)[C@H]([C@H](OC(=O)c3ccccc3)[C@]3(O)C[C@H](OC(=O)[C@H](O)[C@H](CC(C)C)NC(=O)OC(C)(C)C)C(C)=C1C3(C)C)[C@]1(OC(C)=O)CO[C@@H]1C[C@@H]2O: Active
CCC(=O)O[C@H]1C(=O)[C@@]2(C)[C@H]([C@H](OC(=O)c3cccc(OC)c3)[C@]3(O)C[C@H](OC(=O)[C@H](O)[C@H](C=C(C)C)NC(=O)OC(C)(C)C)C(C)=C1C3(C)C)[C@]1(OC(C)=O)CO[C@@H]1C[C@@H]2O: Active
CC(=O)O[C@@]12CO[C@@H]1C[C@H](O)[C@@]1(C)C(=O)[C@H](OC(=O)C3CC3)C3=C(C)[C@@H](OC(=O)[C@H](O)[C@H](C=C(C)C)NC(=O)OC(C)(C)C)C[C@@](O)([C@@H](OC(=O)c4ccccc4)[C@H]21)C3(C)C: Active

Then this compound:
Prompt: Identify Activity associated with the compound CC(=O)O[C@@]12CO[C@@H]1C[C@H](O)[C@@]1(C)C(=O)[C@H](OC(=O)N(C)C)C3=C(C)[C@@H](OC(=O)[C@H](O)[C@H](C=C(F)F)NC(=O)OC(C)(C)C)C[C@@](O)([C@@H](OC(=O)c4ccccc4)[C@H]21)C3(C)C
Response: Active

----------
System: 1A9
TEST DESCRIPTION: Cytotoxicity against human 1A9 cells by MTT assay
Assay type: functional, cell-based
MEASURED PROPERTY: pIC50
The meaning of pIC50 here: minus log10 of the concentration in molar units.

Prompt: Identify pIC50 associated with the compound CCC(=O)O[C@H]1C(=O)[C@@]2(C)[C@H]([C@H](OC(=O)c3cccc(N=[N+]=[N-])c3)[C@]3(O)C[C@H](OC(=O)[C@H](O)[C@@H](NC(=O)OC(C)(C)C)c4ccccc4)C(C)=C1C3(C)C)[C@]1(OC(C)=O)CO[C@@H]1C[C@@H]2O
Response: 8.51

Prompt: Identify pIC50 associated with the compound CC(=O)O[C@H]1C(=O)[C@@]2(C)[C@H]([C@H](OC(=O)c3ccccc3)[C@]3(O)C[C@H](OC(=O)[C@H](O)[C@@H](NC(=O)c4ccccc4)c4ccccc4)C(C)=C1C3(C)C)[C@]1(OC(C)=O)CO[C@@H]1C[C@@H]2O [PACLITAXEL]
Response: 8.41

Prompt: Identify pIC50 associated with the compound CC(=O)O[C@@]12CO[C@@H]1C[C@H](O)[C@@]1(C)C(=O)[C@H](OC(=O)C3CC3)C3=C(C)[C@@H](OC(=O)[C@H](O)[C@H](C=C(C)C)NC(=O)OC(C)(C)C)C[C@@](O)([C@@H](OC(=O)c4ccccc4)[C@H]21)C3(C)C
Response: 8.30

Prompt: Identify pIC50 associated with the compound C/C=C(\C)C(=O)N[C@@H](c1ccccc1)[C@@H](O)C(=O)O[C@H]1C[C@@]2(O)[C@@H](OC(=O)c3cccc(N=[N+]=[N-])c3)[C@@H]3[C@]4(OC(C)=O)CO[C@@H]4C[C@H](OC(=O)CC)[C@@]3(C)C(=O)[C@H](O)C(=C1C)C2(C)C
Response: 8.64

Prompt: Identify pIC50 associated with the compound CC(=O)O[C@@]12CO[C@@H]1C[C@H](O)[C@@]1(C)C(=O)[C@H](OC(=O)N(C)C)C3=C(C)[C@@H](OC(=O)[C@H](O)[C@H](C=C(F)F)NC(=O)OC(C)(C)C)C[C@@](O)([C@@H](OC(=O)c4ccccc4)[C@H]21)C3(C)C
Response: 8.49
